test system: A. baumannii #2; assay: microbe, parasite or virus in culture; conditions: A. baumannii #2 isolated from patient; broth microdilution, 37 °C, 18 h; three independent experiments
Where no end group is shown, it is not given here.
Measure: MIC (µM)
Answers are plain numbers, in µM.

GILGKLWEGVKSIF-NH2 [Hp1404, reference compound]	3.13
GILGKLWEGVKSIV-NH2 [Hp1404-V]	6.25
GILGKLWEGVKSIW-NH2 [Hp1404-W]	3.13
GILGKLWEGVKSIL-NH2 [Hp1404-L]	3.13

Now, please, on to the next substance.
Problem: Please give the measured MIC for this substance: GILGKLWEGVKSII-NH2 [Hp1404-I]
Result: 3.13
